Experiment: Identifying Small Molecule Inhibitors of Pancreatic Cancer Stem Cells (Panc1, Spheroid) (AID 1259359);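 also: potency is read from the fitted curve at half-maximal effect; compound exposure lasted 48 h before reading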
Conditions: Panc1 spheroid cancer stem cell viability; series mostly up to 46.1 µM
Description: Progenitor-like cancer cells, often referred to as cancer stem cells (CSC), are believed to be the drivers of therapeutic resistance and rapid recurrence. CSCs are postulated to reside in specific niches characterized by low oxygen tension, limited nutrient supply, and high redox load. Selectively targeting CSC, alone or in combination with cytotoxic agents, as a means to produce durable remissions is an appealing concept. […]
Results filed as inconclusive are left out. Calls of active or inactive are those of the source. Calls follow the shape of the dose curve; as a rule, active = well fitted cell-killing curve with a large enough effect; inconclusive = small, poorly fitted or top-dose-only effect, or effect the other way, or another doubt; inactive = no such curve, though single readings can be large or run the other way.
Listing of recorded Potency by entry.

COMPOUND	Potency
Cc1[nH]c2ccccc2c1CCNCc1ccc(C=CC(=O)NO)cc1	0.59 µM (active)
C=CC(=O)Nc1cc2c(Nc3ccc(F)c(Cl)c3)ncnc2cc1C#CC(C)(C)N1CCN(C)CC1	5.26 µM (active)
CC(NCc1ccc2c(c1)nc(NC(=O)c1ccc(-c3cn[nH]c3)s1)n2CC(C)(C)O)C(C)(C)C (stereo not given)	0.166 µM (active)

# input Item Cc1nc2cnc3ccc(C#Cc4cccnc4)cc3c2n1-c1ccc(C(C)(C)C#N)cc1 : provide Potency
# output 18.7 µM (active)

# input Give a short answer stating reported Potency for CN(C)CC=CC(=O)Nc1cc2c(Nc3ccc(F)c(Cl)c3)ncnc2cc1O[C@H]1CCOC1 .
# output 11.8 µM (active)

----------
assay: Quantitative High-Throughput drug screen in 47 multiple myeloma cell lines against the NCATS MIPE library collection: KMS34_JCRB cell viability assay (AID 1918985); details: KMS34 myeloma viability, CellTiter-Glo ATP luminescence, 48 h; series mostly up to 45.8 µM; also: potency is read from the fitted curve at half-maximal effect; nearly all actives have a fitted effect of over 40% in size
Records with an inconclusive call do not appear. Active and inactive are the calls of the source. The call rests on the fitted dose curve; in most records, active means well fitted cell-killing curve with a large enough effect; inconclusive means small, poorly fitted or top-dose-only effect, or effect the other way; inactive means no such curve, though single readings can be large or run the other way.
Reported Potency by item:

Cn1c2ccccc2c2c3c(c4c5ccccc5n(CCC#N)c4c21)CNC3=O 3720 nM (active)
NC(=O)Nc1cc(-c2cccc(F)c2)sc1C(=O)N[C@H]1CCCNC1 93.5 nM (active)
CCN(CC)CCNC(=O)c1ccc2nc(-c3ccccc3)c(-c3ccc(CN4CCC(n5c(=O)[nH]c6ccccc65)CC4)cc3)nc2c1 20900 nM (active)
COC(=O)Nc1ccc(-c2nc(N3CCOCC3)c3cnn(C4CCN(Cc5cccnc5)CC4)c3n2)cc1 59 nM (active)
CNC(=O)c1c(F)cccc1Nc1nc(Nc2cc3c(cc2OC)CCN3C(=O)CN(C)C)nc2[nH]ccc12 8330 nM (active)
CC(C)c1cc(C(=O)N2Cc3ccc(CN4CCN(C)CC4)cc3C2)c(O)cc1O 235 nM (active)
C[C@@H](Oc1cc(-c2cnn(C3CCNCC3)c2)cnc1N)c1c(Cl)ccc(F)c1Cl 11800 nM (active)
CC[C@@H]1C(=O)N(C)c2cnc(Nc3ccc(C(=O)NC4CCN(C)CC4)cc3OC)nc2N1C1CCCC1 187 nM (active)

Query compound follows.
# input Specify Potency for Nc1ccccc1NC(=O)c1ccc(CNC(=O)OCc2cccnc2)cc1 and stop.
# output 935 nM (active)

----------
experiment: Identifying Small Molecule Inhibitors of Pancreatic Cancer Stem Cells (SN12C, Spheroid) (AID 1259360); settings: SN12C spheroid viability; series mostly up to 46.1 µM
Records with an inconclusive call do not appear. Activity calls are given as the source filed them. The call rests on the fitted dose curve; in most records, active means well fitted cell-killing curve with a large enough effect; inconclusive means small, poorly fitted or top-dose-only effect, or effect the other way; inactive means flat fitted curve, though single readings scatter.
Reply using exactly one outcome from Yes = active, No = inactive

COMPOUND	CLASS ASSIGNMENT
C[C@@]12O[C@@H](C[C@]1(O)CO)n1c3ccccc3c3c4c(c5c6ccccc6n2c5c31)CNC4=O	Yes
C[C@@H](Oc1cc(-c2cnn(C3CCNCC3)c2)cnc1N)c1c(Cl)ccc(F)c1Cl	Yes
CC(NCc1ccc2c(c1)nc(NC(=O)c1ccc(-c3cn[nH]c3)s1)n2CC(C)(C)O)C(C)(C)C (centres undefined)	Yes

# input For this compound, state the assay outcome: Cc1cc(Nc2cc(N3CCN(C)CC3)nc(C=Cc3ccccc3)n2)n[nH]1
# output No

# input Recorded test outcome, item COC(=O)c1ccc2c(C(=Nc3ccc(N(C)C(=O)CN4CCN(C)CC4)cc3)c3ccccc3)c(O)[nH]c2c1
# output Yes

# input Hey, what did the test say about Nc1nc(-c2nn(Cc3ccccc3F)c3ncccc23)nc(N)c1N1CCOCC1 ?
# output No

# input Assay result, entry COc1ccc(CC2SC(=O)NC2=O)cc1C(=O)NCc1ccc(C(F)(F)F)cc1 (centres undefined) — outcome?
# output No

# input Kindly provide the recorded test outcome for the following compound: O=C(O)[C@H](Cc1c[nH]c2ccccc12)N1C(=O)c2ccccc2C1=O
# output No

# input Please state the recorded outcome for this compound: Cc1cnc(-c2cnc(NCCNc3ccc(C#N)cn3)nc2-c2ccc(Cl)cc2Cl)[nH]1
# output No
